biological target: P-glycoprotein (P-gp, MDR1) (Homo sapiens, UniProt P08183); construct: expressed in transfected cells; host or cells: MDCKII-MDR1 (Madin-Darby Canine Kidney clone II); experiment: Bidirectional permeability and P-gp substrate assay in MDCKII-MDR1 cells; assay type: in vitro ADME; conditions: human, MDCK-MDR1, pH 7.4; efflux ratio, MDCKII-MDR1 cells; read-out: MDCKII-MDR1 B-A ratio
Sequence (P08183 whole entry): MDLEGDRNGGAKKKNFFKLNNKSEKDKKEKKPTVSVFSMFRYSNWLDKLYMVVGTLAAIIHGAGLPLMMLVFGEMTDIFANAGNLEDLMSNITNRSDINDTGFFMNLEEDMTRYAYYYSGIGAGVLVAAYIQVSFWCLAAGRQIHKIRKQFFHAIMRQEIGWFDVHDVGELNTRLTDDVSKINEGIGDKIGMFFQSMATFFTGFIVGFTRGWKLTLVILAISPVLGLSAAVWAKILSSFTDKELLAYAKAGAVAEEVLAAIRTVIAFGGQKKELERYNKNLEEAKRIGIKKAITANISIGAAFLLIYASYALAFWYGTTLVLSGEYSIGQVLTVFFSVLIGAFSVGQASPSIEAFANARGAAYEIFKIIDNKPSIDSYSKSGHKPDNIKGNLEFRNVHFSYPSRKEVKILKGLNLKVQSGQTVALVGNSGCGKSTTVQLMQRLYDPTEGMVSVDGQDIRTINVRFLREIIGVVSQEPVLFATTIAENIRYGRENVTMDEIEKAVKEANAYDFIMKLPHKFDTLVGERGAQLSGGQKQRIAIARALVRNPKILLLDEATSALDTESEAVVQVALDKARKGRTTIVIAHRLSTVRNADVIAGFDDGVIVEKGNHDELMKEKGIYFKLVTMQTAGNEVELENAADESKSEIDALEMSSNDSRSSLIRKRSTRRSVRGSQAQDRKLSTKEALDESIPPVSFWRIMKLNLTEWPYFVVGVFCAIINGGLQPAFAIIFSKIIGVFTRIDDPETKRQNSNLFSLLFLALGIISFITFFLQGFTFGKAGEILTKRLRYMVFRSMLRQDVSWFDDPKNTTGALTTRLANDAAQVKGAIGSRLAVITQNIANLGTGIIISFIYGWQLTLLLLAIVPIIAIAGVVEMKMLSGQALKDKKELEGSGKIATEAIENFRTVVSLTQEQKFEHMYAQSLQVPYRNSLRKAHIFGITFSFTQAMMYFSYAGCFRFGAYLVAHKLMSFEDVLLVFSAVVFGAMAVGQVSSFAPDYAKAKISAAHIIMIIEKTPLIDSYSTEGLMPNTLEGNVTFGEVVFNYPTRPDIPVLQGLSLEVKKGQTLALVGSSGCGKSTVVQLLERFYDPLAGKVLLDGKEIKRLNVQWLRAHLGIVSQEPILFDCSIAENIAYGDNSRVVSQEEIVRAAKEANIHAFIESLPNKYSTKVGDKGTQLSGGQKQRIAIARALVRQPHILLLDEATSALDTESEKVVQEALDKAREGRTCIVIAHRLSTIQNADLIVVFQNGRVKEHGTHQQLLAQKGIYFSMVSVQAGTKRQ
The molecules listed here are annotated with their efflux ratio at 60 min.
Respond numerically, and do not add a unit to the figure.

# return recorded efflux ratio at 60 min for input COc1ccc2c(c1)CC(N)C2 (centres unmarked)
1

Next:
# return recorded efflux ratio at 60 min for input COC(=O)c1ccc2c(c1)CC(N)C2 (centres unmarked) [CMP-405, 2-aminoindane-5-methylcarboxylate]
1.1

###

biological target: CYP2C8 (Homo sapiens); construct: purchased Life Technologies PV6138; host or cells: Baculosomes; assay: CYP450 inhibition, fluorescent probe substrate; assay type: in vitro ADME
Sequence (P10632 whole entry): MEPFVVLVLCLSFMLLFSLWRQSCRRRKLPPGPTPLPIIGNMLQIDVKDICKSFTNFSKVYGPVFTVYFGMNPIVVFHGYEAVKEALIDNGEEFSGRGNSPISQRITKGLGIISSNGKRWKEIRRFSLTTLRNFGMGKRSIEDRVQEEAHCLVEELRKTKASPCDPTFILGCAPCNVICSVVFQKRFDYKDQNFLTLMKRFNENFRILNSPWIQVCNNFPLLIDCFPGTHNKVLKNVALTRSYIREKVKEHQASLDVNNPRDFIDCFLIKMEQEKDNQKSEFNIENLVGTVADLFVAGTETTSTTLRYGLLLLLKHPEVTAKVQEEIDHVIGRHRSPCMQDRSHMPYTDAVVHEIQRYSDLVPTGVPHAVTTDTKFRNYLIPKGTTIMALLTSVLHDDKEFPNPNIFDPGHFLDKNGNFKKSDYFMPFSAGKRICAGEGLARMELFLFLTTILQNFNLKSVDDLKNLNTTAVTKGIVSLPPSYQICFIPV
The compounds listed here are annotated with their IC50.

# return recorded IC50 for input COc1cc2c(cc1C)CC(N)C2 (centres unmarked)
> 50 µM

Now for the compound whose IC50 we want.
# return recorded IC50 for input COc1ccc2c(c1)CC(N)C2 (centres unmarked)
> 50 µM

###

The compounds listed here are annotated with their pIC50.
Molecular target: CYP2B6 (Homo sapiens)
Construct: purchased Life Technologies P3028; host or cells: Baculosomes
Sequence (P20813 1-491): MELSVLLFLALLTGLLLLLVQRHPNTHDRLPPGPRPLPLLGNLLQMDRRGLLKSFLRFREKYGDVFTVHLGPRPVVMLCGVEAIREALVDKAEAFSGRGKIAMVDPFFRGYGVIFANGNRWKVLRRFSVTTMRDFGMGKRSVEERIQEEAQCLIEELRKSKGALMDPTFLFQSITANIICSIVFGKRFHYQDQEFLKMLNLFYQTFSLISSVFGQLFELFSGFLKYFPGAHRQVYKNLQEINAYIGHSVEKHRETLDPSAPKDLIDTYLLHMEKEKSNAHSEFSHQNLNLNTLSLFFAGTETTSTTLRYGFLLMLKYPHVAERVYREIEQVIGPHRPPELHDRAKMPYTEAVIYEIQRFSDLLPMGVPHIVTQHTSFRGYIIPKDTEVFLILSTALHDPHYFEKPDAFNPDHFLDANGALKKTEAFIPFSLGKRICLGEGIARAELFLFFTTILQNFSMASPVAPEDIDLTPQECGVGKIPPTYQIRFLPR
Assay: CYP450 inhibition, fluorescent probe substrate
Format: in vitro ADME
pIC50: −log10 of the molar value.

Tell me pIC50 of COc1cc2c(cc1C)CC(N)C2 (centres unmarked) [MMAI, 5-methoxy-6-methyl-2-aminoindane] when tested on CYP2B6 (Homo sapiens).
< 4.30

Now for the compound whose pIC50 we want.
Tell me pIC50 of COc1ccc2c(c1)CC(N)C2 (centres unmarked) [MEAI, 5-methoxy-2-aminoindane] when tested on CYP2B6 (Homo sapiens).
< 4.30

###

assay: Brain tissue binding by equilibrium dialysis, rat brain homogenate; type: in vitro ADME; details: male, Sprague Dawley, pH 7.4, read-out: Rat brain tissue binding (Fu %)
The compounds listed here are annotated with their fraction unbound at 5 h, 5 μM.
Respond numerically, and do not add a unit to the figure.

Sample records with fraction unbound at 5 h, 5 μM:
# return recorded fraction unbound at 5 h, 5 μM for input COc1ccc2c(c1)CC(N)C2 (stereo not shown) [MEAI, 5-methoxy-2-aminoindane]
0.33

# return recorded fraction unbound at 5 h, 5 μM for input COC(=O)c1ccc2c(c1)CC(N)C2 (stereo not shown) [CMP-405, 2-aminoindane-5-methylcarboxylate]
0.24

Now for the compound whose fraction unbound at 5 h, 5 μM we want.
# return recorded fraction unbound at 5 h, 5 μM for input COc1cc2c(cc1C)CC(N)C2 (stereo not shown) [MMAI, 5-methoxy-6-methyl-2-aminoindane]
0.12
